MEASURED TARGET: Fuc(a1-2)[Gal(a1-3)]Gal(b1-4)[Fuc(a1-3)]GlcNAc
PROTOCOL NOTES: glycan array binding signal (z-score within array); higher = stronger binding
COND: glycan notation: IUPAC condensed, linker removed
About 410 targets per protein were measured; listed, in parts, are those with the strongest signals and a random draw of the rest.
Answer each item with its documented glycan array binding signal (z-score).
Number only, no unit.

Exercise: What value of glycan array binding signal (z-score) has been recorded for this entry: DC-Sign-R (Homo sapiens), Q9H2X3 (protein) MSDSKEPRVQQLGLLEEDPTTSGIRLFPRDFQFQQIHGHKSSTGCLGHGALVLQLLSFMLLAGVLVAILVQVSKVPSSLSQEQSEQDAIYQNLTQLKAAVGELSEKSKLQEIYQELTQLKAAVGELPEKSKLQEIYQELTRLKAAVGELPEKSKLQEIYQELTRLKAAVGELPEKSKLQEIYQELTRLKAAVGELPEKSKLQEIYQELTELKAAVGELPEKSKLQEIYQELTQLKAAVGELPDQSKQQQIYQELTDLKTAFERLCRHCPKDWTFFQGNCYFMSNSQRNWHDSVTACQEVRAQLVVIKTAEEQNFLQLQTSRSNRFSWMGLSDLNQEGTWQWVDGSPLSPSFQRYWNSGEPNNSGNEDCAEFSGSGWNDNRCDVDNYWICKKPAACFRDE
Solution: 0.112

Exercise: Entry to check: Gal 4 (Mus musculus), P56470 (protein) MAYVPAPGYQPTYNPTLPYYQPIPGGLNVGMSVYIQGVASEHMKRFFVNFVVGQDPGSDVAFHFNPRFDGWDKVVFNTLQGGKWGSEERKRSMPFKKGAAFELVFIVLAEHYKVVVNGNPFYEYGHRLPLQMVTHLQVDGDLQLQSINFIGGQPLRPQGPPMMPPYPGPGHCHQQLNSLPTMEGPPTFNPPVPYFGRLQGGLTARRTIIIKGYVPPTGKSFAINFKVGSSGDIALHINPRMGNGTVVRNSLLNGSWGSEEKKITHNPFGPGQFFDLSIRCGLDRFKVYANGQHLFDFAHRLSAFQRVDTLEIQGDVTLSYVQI
Solution: -0.266

Exercise: Same question for CALR truncated at D342 (Homo sapiens) (protein) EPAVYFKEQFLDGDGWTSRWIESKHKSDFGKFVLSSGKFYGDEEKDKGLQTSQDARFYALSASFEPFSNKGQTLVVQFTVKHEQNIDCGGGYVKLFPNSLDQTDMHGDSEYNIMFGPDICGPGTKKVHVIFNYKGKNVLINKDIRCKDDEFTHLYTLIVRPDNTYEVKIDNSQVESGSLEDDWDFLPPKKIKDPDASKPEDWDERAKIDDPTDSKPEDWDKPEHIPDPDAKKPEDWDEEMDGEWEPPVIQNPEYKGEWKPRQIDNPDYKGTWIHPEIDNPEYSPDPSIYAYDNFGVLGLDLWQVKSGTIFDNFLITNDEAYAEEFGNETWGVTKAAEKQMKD please.
Solution: -0.484

Exercise: Param item: MAL (Maackia amurensis) (protein) SDELSFTINNFMPNQGDLLFQGVATVSPTGVLQLTSEENGQPLEYSVGRVLYTAPVRIWDSTTGAVASFSTSFTFVVKAARGASDGLAFFLAPPDSQIPSGSVSKYLGLFNNSNSDSSNQIVAVEFDTYFGHSYDPWDPNYRHIGIDVNGIESIKTVQWDWINGGVAFATITYLAPNKTLIASLVYPSNQTSFIVAASVDLKEILPEWVRVGFSAATGAPKAVETHDVRSWSFTSTLEANSPADVDN
Solution: -0.348

Exercise: What do you get for Dectin2 (Homo sapiens), Q6EIG7 (protein) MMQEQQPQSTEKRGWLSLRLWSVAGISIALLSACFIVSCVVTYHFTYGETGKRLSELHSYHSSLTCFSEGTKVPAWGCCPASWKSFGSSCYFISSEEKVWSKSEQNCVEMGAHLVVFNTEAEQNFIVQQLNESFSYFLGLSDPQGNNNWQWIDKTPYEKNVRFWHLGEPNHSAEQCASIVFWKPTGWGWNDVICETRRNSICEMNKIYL ?
Solution: -0.1

Exercise: Follow-up item: MCL (Mus musculus), Q9Z2H6 (protein) MWLEESQMKSKGTRHPQLIPCVFAVVSISFLSACFISTCLVTHHYFLRWTRGSVVKLSDYHTRVTCIREEPQPGATGGTWTCCPVSWRAFQSNCYFPLNDNQTWHESERNCSGMSSHLVTINTEAEQNFVTQLLDKRFSYFLGLADENVEGQWQWVDKTPFNPHTVFWEKGESNDFMEEDCVVLVHVHEKWVWNDFPCHFEVRRICKLPGITFNWKPSK
Solution: 0.241

Exercise: Also LFA (Limax flavus) (protein) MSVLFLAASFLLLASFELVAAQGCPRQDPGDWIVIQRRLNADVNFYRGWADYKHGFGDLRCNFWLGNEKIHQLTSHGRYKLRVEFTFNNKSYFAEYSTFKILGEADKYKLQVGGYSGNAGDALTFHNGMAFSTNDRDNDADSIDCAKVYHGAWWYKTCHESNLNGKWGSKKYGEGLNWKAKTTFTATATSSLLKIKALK ?
Solution: -0.137

Exercise: // repeat for YASPKCFRYPNGVLACT [Odorranalectin (Odorrana grahami), B3TFE9_RANGR] and report
Solution: 0.56
